# target_under_test: T1, pVIc (C-terminal peptide of pVI) (Human adenovirus 2, UniProt P03274)
# T1 chain: GVQSLKRRRCF
# assay_remarks: FP; Cy3B-pVIc, 20 mM Hepes pH 7, 0.025% DDM, 10 mM NaCl; 7 bp site
# reported_conditions: protein: synthetic; tags: synthetic peptide; Cy3B at Cys10' in pH 7 and sliding assays; label: 5'-fluorescein (unlabeled with Cy3B-labeled protein)
value_kind: Kd (nM)

binder="12-mer dsDNA (dsDNA) DNA 1: GACGACTAGGAT DNA 2: ATCCTAGTCGTC" result_units=nM measurement=264
